study_target: T1, IL-18 binding protein (IL-18BP) (UniProt O95998 31-194); also: unit not given here
T1 sequence (looked up): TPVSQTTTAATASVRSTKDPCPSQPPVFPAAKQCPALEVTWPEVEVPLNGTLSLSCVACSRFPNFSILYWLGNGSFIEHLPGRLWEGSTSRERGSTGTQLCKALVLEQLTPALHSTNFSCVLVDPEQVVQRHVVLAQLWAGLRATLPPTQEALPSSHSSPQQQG
assay_comment: cell-based or functional assay
endpoint: Activity, +100 nM BP, DF-25000004

Some solved entries appear below for comparison.
# binder, Activity, +100 nM BP, DF-25000004
records = [
    ("IL-18 variant G3P, E6D, K53T, D54N, T63A, N91T, R104P (ligand) YFPKLDSKLSVIRNLNDQVLFIDQGNRPLFEDMTDSDMRDNAPRTIFIISMYTNSQPRGMAVAISVKSEKISTLSSENKIISFKEMNPPDTIKDTKSDIIFFQPSVPGHDNKMQFESSSYEGYFLASEKERDLFKLILKKEDELGDRSIMFTVQNED", 0.07),
    ("IL-18 variant G3P, E6H, D54A, S55P, Q56K, T63S, N91M (ligand) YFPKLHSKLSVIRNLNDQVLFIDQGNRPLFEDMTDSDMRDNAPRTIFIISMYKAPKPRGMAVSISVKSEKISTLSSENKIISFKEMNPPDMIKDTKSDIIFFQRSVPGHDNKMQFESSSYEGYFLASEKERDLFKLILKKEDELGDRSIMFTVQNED", 0.19),
]

Now look at this entry.
The value of Activity, +100 nM BP, DF-25000004 measured for the binder IL-18 variant G3P, E6K, K53M, D54W, S55N, T63S, N91I (ligand) YFPKLKSKLSVIRNLNDQVLFIDQGNRPLFEDMTDSDMRDNAPRTIFIISMYMWNQPRGMAVSISVKSEKISTLSSENKIISFKEMNPPDIIKDTKSDIIFFQRSVPGHDNKMQFESSSYEGYFLASEKERDLFKLILKKEDELGDRSIMFTVQNED turned out to be 0.09
